biological target: T1, TGFβ1 (R&D Systems); assay: SPR full titration
T1 construct: also called TGFB1
T1 sequence (P01137 279-390): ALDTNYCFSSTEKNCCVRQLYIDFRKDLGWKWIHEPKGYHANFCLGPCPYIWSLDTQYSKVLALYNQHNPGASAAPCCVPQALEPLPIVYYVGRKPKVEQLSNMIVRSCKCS
pKd: −log10 of the molar value.

binder	pKd
affinity matured HcLb 259 (antibody, V domains shown, full IgG; constant regions not restated) VH: EVQLVQSGAEVKKPGASVKVSCKTSGYTFITYWMNWVRQAPGAGLDWMGQIFPAWGMTNYNEMFEGRVTLTADTSTSTAYMELSSLRAGDIAVYYCARGYGNYALDAMDYWGQGTLVTVSS VL: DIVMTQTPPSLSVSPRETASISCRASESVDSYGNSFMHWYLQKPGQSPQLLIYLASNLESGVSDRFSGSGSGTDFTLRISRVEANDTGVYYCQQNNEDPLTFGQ	8.52
affinity matured HcLb 267 (antibody, V domains shown, full IgG; constant regions not restated) VH: EVQLVQSGAEVKKPGASVKVSCKTSGYIFMKYWMNWVRQAPGAGLDWMGQIFPAWGSTNYNEMFEGRVTLTADTSTSTAYMELSSLRAGDIAVYYCARGYGNYALDAMDYWGQGTLVTVSS VL: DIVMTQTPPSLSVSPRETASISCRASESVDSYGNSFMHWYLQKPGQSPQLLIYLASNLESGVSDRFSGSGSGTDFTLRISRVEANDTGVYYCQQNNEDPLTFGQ	8.29
affinity matured HcLb 262 (antibody, V domains shown, full IgG; constant regions not restated) VH: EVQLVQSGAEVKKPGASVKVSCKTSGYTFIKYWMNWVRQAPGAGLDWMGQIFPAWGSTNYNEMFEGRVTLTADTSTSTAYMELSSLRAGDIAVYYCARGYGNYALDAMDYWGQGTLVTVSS VL: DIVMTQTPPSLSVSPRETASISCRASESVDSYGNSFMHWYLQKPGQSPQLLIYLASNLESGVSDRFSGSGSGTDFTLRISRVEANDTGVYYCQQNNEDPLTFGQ	8.21

// data source = patent US20220119513A1
